meta.source: patent US20020137929A1

tested on: GALAP (Galium); assay: Preemergence herbicidal evaluation; assay type: in vivo, Galium aparine; settings: rate 0.0313 kg/ha; rated 4-5 weeks after treatment
READOUT: Preemergence herbicidal rating GALAP
In your answer, state the number alone without any accompanying words.

Q: Provide one value: measured Preemergence herbicidal rating GALAP of CCOC(=O)CN1C(=O)C(C(=O)OCC)SC1=Nc1cc(-n2c(=O)cc(C(F)(F)F)n(C)c2=O)c(F)cc1Cl (centres unmarked)
Result: 0.0

Q: Provide one value: measured Preemergence herbicidal rating GALAP of CCOC(=O)CN1C(=O)C[S+]([O-])/C1=N/c1cc(-n2c(=O)cc(C(F)(F)F)n(C)c2=O)c(F)cc1Cl (centres unmarked)
Result: 0.0

Q: Provide one value: measured Preemergence herbicidal rating GALAP of CCCCOC(=O)CN1C(=O)CSC1=Nc1cc(-n2c(=O)cc(C(F)(F)F)n(C)c2=O)c(F)cc1Cl
Result: 0.0

Q: Provide one value: measured Preemergence herbicidal rating GALAP of Cn1c(C(F)(F)F)cc(=O)n(-c2cc(N=C3SCC(=O)N3CC(=O)OCC#N)c(Cl)cc2F)c1=O
Result: 3.0

Q: Provide one value: measured Preemergence herbicidal rating GALAP of CCOC(=O)C(c1ccc(Cl)cc1)N1C(=O)CSC1=Nc1cc(-n2c(=O)cc(C(F)(F)F)n(C)c2=O)c(F)cc1Cl (racemic)
Result: 0.0

More entries:
Q: Provide one value: measured Preemergence herbicidal rating GALAP of CCOC(=O)CN1C(=O)C(SC)SC1=Nc1cc(-n2c(=O)cc(C(F)(F)F)n(C)c2=O)c(F)cc1Cl (centres unmarked)
Result: 0.0

Q: Provide one value: measured Preemergence herbicidal rating GALAP of C=CCN1C(=O)C(CC(=O)Nc2ccccc2)SC1=Nc1cc(-n2c(=O)cc(C(F)(F)F)n(C)c2=O)c(F)cc1Cl (centres unmarked)
Result: 1.0

Q: Provide one value: measured Preemergence herbicidal rating GALAP of COCCOC(=O)CN1C(=O)CSC1=Nc1cc(-n2c(=O)cc(C(F)(F)F)n(C)c2=O)c(F)cc1Cl
Result: 1.0

* * *

Entries and their GLXMAW preemergence herbicidal rating values follow.
system: GLXMAW (Soybean, Williams); assay: Preemergence herbicidal evaluation; assay type: in vivo, Glycine max, (L.) Merr. cv Williams; settings: rate 0.0313 kg/ha; rated 4-5 weeks after treatment
In your answer, state the number alone without any accompanying words.

Please review the entries below; each comes with its answer.
Q: Provide one value: measured GLXMAW preemergence herbicidal rating of COC(=O)CN1C(=O)CSC1=Nc1cc(-n2c(=O)cc(C(F)(F)F)n(C)c2=O)c(F)cc1Cl
Result: 0.0

Q: Provide one value: measured GLXMAW preemergence herbicidal rating of O=C1CSC(=Nc2cc(N3C(=O)C4=C(CCCC4)C3=O)c(F)cc2Cl)N1c1ccccc1
Result: 0.0

Q: Provide one value: measured GLXMAW preemergence herbicidal rating of CCOC(=O)CN1C(=O)C(C)SC1=Nc1cc(-n2c(=O)cc(C(F)(F)F)n(C)c2=O)c(F)cc1Cl (stereo not shown)
Result: 2.0

Attention now turns to another entry.
Q: Provide one value: measured GLXMAW preemergence herbicidal rating of CCOC(=O)CN1C(=O)C(CC)SC1=Nc1cc(-n2c(=O)cc(C(F)(F)F)n(C)c2=O)c(F)cc1Cl (stereo not shown)
Result: 0.0

* * *

Entries and their Preemergence herbicidal rating SETVI values follow.
tested on: SETVI (Foxtail, Green); assay: Preemergence herbicidal evaluation; type: in vivo, Setaria viridis; conditions: 0.2500 kg/ha, rated 4-5 weeks after treatment
In your answer, state the number alone without any accompanying words.

Please review the entries below; each comes with its answer.
Q: Provide one value: measured Preemergence herbicidal rating SETVI of C#CC(C)N1C(=O)CSC1=Nc1cc(-n2c(=O)cc(C(F)(F)F)n(C)c2=O)c(F)cc1Cl (stereo not drawn) [Compound 165]
Result: 9.0

Q: Provide one value: measured Preemergence herbicidal rating SETVI of CCOC(=O)CN1C(=O)CSC1=Nc1cc(N2C(=O)CC(C(F)(F)F)CC2=O)c(F)cc1Cl [Compound 169]
Result: 0.0

Q: Provide one value: measured Preemergence herbicidal rating SETVI of Cn1c(C(F)(F)F)cc(=O)n(-c2cc(N=C3SCC(=O)N3CC(F)(F)F)c(Cl)cc2F)c1=O [Compound 163]
Result: 9.0

Q: Provide one value: measured Preemergence herbicidal rating SETVI of CCCN1C(=O)CSC1=Nc1cc(-n2c(=O)cc(C(F)(F)F)n(C)c2=O)c(F)cc1Cl [Compound 171]
Result: 9.0

Q: Provide one value: measured Preemergence herbicidal rating SETVI of CN1C(=O)C(CC(=O)NO)SC1=Nc1cc(-n2c(=O)cc(C(F)(F)F)n(C)c2=O)c(F)cc1Cl (stereo not drawn) [Compound 162]
Result: 9.0

Attention now turns to another entry.
Q: Provide one value: measured Preemergence herbicidal rating SETVI of C=CCN1C(=O)C(CC(=O)NO)SC1=Nc1cc(-n2c(=O)cc(C(F)(F)F)n(C)c2=O)c(F)cc1Cl (stereo not drawn) [Compound 161]
Result: 9.0

* * *

tested on: ECHCG (Barnyardgrass); test: Postemergence herbicidal evaluation; format: in vivo, Echinochloa crus-galli; settings: Rate 0.0158 kg/ha
READOUT: Postemergence herbicidal rating ECHCG
In your answer, state the number alone without any accompanying words.

Please review the entries below; each comes with its answer.
Q: Provide one value: measured Postemergence herbicidal rating ECHCG of CCOC(=O)CN1C(=O)C(CC(=O)O)O/C1=N/c1cc(-n2c(=O)cc(C(F)(F)F)n(C)c2=O)c(F)cc1Cl (stereo not shown)
Result: 2.0

Q: Provide one value: measured Postemergence herbicidal rating ECHCG of CCOC(=O)CCN1C(=O)CSC1=Nc1cc(-n2c(=O)cc(C(F)(F)F)n(C)c2=O)c(Cl)cc1Cl
Result: 0.0

More entries:
Q: Provide one value: measured Postemergence herbicidal rating ECHCG of C=CCN1C(=O)C(CC(=O)O)SC1=Nc1cc(-n2c(=O)cc(C(F)(F)F)n(C)c2=O)c(F)cc1Cl (stereo not shown)
Result: 4.0

Q: Provide one value: measured Postemergence herbicidal rating ECHCG of CCOC(=O)CN1C(=O)C(CC(=O)OCc2ccccc2)OC1=Nc1cc(-n2c(=O)cc(C(F)(F)F)n(C)c2=O)c(F)cc1Cl (stereo not shown)
Result: 1.0

* * *

Entries and their Preemergence herbicidal rating TRZAWR values follow.
system: TRZAWR (Wheat, Winter, cv Riband); assay: Preemergence herbicidal evaluation; format: in vivo, Triticum aestivum; settings: rate 0.1250 kg/ha; rated 4-5 weeks after treatment
In your answer, state the number alone without any accompanying words.

Q: Provide one value: measured Preemergence herbicidal rating TRZAWR of Cn1c(C(F)(F)F)cc(=O)n(-c2cc(N=C3SCC(=O)N3[C@H](Cc3ccccc3)C(=O)O)c(Cl)cc2F)c1=O
Result: 1.0

Q: Provide one value: measured Preemergence herbicidal rating TRZAWR of CCOC(=O)CN1CCSC1=Nc1cc(-n2nc(C)n(C(F)F)c2=O)c(F)cc1Cl
Result: 1.0

Q: Provide one value: measured Preemergence herbicidal rating TRZAWR of CCOC(=O)CN1C(=O)C(CC(=O)NS(=O)(=O)C(C)C)SC1=Nc1cc(-n2c(=O)cc(C(F)(F)F)n(C)c2=O)c(F)cc1Cl (stereo not shown)
Result: 0.0

Attention now turns to another entry.
Q: Provide one value: measured Preemergence herbicidal rating TRZAWR of C=CCN1C(=O)C(CC(=O)OC(C)C)SC1=Nc1cc(-n2c(=O)cc(C(F)(F)F)n(C)c2=O)c(F)cc1Cl (stereo not shown)
Result: 0.5

* * *

Entries and their herbicidal rating CHEAL values follow.
system: CHEAL (Lambsquarters, Common); assay: Postemergence herbicidal evaluation; type: in vivo, Chenopodium album; conditions: postemergence, rate 0.0625 kg/ha

Please review the entries below; each comes with its answer.
Q: Provide herbicidal rating CHEAL, recorded with CHEAL (Lambsquarters, Common), of CCOC(=O)CN1C(=O)C(C(=O)OCC)SC1=Nc1cc(-n2c(=O)cc(C(F)(F)F)n(C)c2=O)c(F)cc1Cl (stereo not drawn)
Result: 9.0

Q: Provide herbicidal rating CHEAL, recorded with CHEAL (Lambsquarters, Common), of CCOC(=O)CN1C(=O)C(CC(=O)NS(=O)(=O)c2ccccc2)SC1=Nc1cc(-n2c(=O)cc(C(F)(F)F)n(C)c2=O)c(F)cc1Cl (stereo not drawn)
Result: 7.0

More entries:
Q: Provide herbicidal rating CHEAL, recorded with CHEAL (Lambsquarters, Common), of CCOC(=O)CN1C(=O)C(Cl)SC1=Nc1cc(-n2c(=O)cc(C(F)(F)F)n(C)c2=O)c(F)cc1Cl (stereo not drawn)
Result: 4.0

Q: Provide herbicidal rating CHEAL, recorded with CHEAL (Lambsquarters, Common), of Cn1c(C(F)(F)F)cc(=O)n(-c2cc(N=C3SCC(=O)N3Cc3ccc(Cl)cc3)c(Cl)cc2F)c1=O
Result: 9.0

Q: Provide herbicidal rating CHEAL, recorded with CHEAL (Lambsquarters, Common), of Cc1cccc(CN2C(=O)CSC2=Nc2cc(-n3c(=O)cc(C(F)(F)F)n(C)c3=O)c(F)cc2Cl)c1
Result: 9.0

Q: Provide herbicidal rating CHEAL, recorded with CHEAL (Lambsquarters, Common), of C#CC(C)N1C(=O)CSC1=Nc1cc(-n2c(=O)cc(C(F)(F)F)n(C)c2=O)c(F)cc1Cl (stereo not drawn)
Result: 7.0
